For each record, write down the corresponding MAX MFI.
Target: T1, human CD73 (full length, on transfected CHOK1 cells) (human, UniProt P21589 27-549)
T1 construct: whole, on cells; also called CHOK1-hCD73; hCD73
T1 sequence (looked up): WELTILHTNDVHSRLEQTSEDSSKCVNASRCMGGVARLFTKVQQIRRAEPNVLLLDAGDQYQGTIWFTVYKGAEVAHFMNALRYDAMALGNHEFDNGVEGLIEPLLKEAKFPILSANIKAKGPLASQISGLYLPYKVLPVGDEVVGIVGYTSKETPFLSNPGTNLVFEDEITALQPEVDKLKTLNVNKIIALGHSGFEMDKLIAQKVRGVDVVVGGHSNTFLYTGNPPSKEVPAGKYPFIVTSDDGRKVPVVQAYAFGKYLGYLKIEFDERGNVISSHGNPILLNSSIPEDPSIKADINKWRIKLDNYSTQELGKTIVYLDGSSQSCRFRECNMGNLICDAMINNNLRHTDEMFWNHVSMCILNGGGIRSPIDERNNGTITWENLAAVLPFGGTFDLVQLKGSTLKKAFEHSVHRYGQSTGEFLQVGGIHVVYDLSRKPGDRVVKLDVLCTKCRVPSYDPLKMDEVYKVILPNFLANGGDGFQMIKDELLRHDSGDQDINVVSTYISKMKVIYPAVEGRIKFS
Assay: FACS on CHOK1-hCD73 cells

Request: Query: MAX MFI; subject: mAb032 (clone 56F12H8), murine anti-CD73 antibody (antibody, V domains shown, Purified from hybridoma supernatant) VH: EVQLVESGGDLVKPGGSLKLSCAASGFTFSTHGMSWVRQTPDKRLEWVAIISSDRSDIDYTDNVKGRFTISRDNGKNTLYLQMSSLKSEDTAIYHCARHRGYDGFYYAMDYWGQGTSVTVSS VL: DILMTQSPSSLTVTAGEKVTMSCRSSQSLLNSGNQKNYLTWYQQRPGRPPKLLIYWASTRISGVPDRFAGSGSGTDFTLTISIVQAEDLAVYYCQNDYSYPLTFGSGTKLELR
Result: 7660 MFI

Request: Entry mAb036 (clone 66H6C12), murine anti-CD73 antibody (antibody, V domains shown, Purified from hybridoma supernatant) VH: QVQLQQSGAEVVKPGASVKISCKASGYVFSSYWINWVKQRPGKGLEWIGKIFPGNGDTDYNGNFKGKATLTADKSSSTAYMQLSSLTSEDSAVYFCAGFADWGQGTLVTVSA VL: DIQMTQSPSSLSASLGERVSLTCRASQDIGERLIWLQQEPDGTFKRLIYATSSLDSGVPKRFSGSSSGSDYSLTISRLESEDFVDYYCLQYASSPYTFGGGTKLEIK has what MAX MFI?
Result: 5290 MFI

Request: Which MAX MFI reading was recorded for the binder mAb042 (clone 77B9A3), murine anti-CD73 antibody (antibody, V domains shown, Purified from hybridoma supernatant) VH: QVQLQQSGAGLVKPGASVKLSCKASGYTFTNYWMHWVKQRPGQGLEWIGMIHPNSGSTNNNEKFKNKATLTVDKSSNTAYMQLSSLTSEDSAVYYCARFFFGGYPHYYALDYWGQGTSVTVSS VL: DIVMTQSQKFMSTTVGDRVSITCKASQNVGTAVAWYQQKPGQSPKLLIYSASDRYTGVPDRLTGSGSGTDFTLTISNVQSEDLADYFCQQYSSFPLFTFGSGTKLVIQ ?
Result: 13900 MFI

Request: Value lookup for MAX MFI; key = mAb034 (clone 60G1C8), murine anti-CD73 antibody (antibody, V domains shown, Purified from hybridoma supernatant) VH: DVQLQESGPGLVKPSQSLSLTCSVTGYSITSRYYWNWIRQFPGNKLEWMGYMTYDGTNNYNPSLTNRISITRDTSKNQFFLKLNSVTAEDTATYFCARGGWDPFDYWGQGTTLTVSS VL: DIQMTQSPAALSASVGETVTITCRASDNIYSYLAWYQQKQGKCPQLLVKNAKTLAEGVPSRFSGSGSGTQFSLRINSLQPDDFGTYYCQHYYGTPLTFGAGTKLELK
Result: 5820 MFI

Request: Quick one: MAX MFI for mAb044 (clone 80H7D6), murine anti-CD73 antibody (antibody, V domains shown, Purified from hybridoma supernatant) VH: EVKLVESGGGLVQPGGSLRLSCAASGFTFTDYYMSWVRQPPGKALEWLGFIRNKADGSTTEYSASVKGRFTISRDNSQSILYLQMNALRPEDSATYYCTRSPIYFDNWYFDVWGTGTTVTVSS VL: DIVMSQSPSSLAVSVGEKVTMTCKSSQSLLYSNNQKNYLAWYQQKPGQSPKLLIYWASTRESGVPDRFTGSGSGTDFTLTLSSVKAEDLAVYYCQQYYSYPFTFGSGTKLEIK ?
Result: 7540 MFI
